// data source = the supplement of paper PMC9170038

Each entry below lists one item and its recorded apparent KD of MS2 coat protein value.
# System: MS2 coat protein
# MEASUREMENT_NOTES: apparent KD of MS2 coat protein; designed switch direction (-1 OFF switch, 1 ON switch): -1; higher = weaker reporter binding
# EXPERIMENTAL_CONTEXT: input ligand: FMN 200 uM
Write down the numeric answer in µM and omit the unit.

Below, each entry is followed by its recorded apparent KD of MS2 coat protein result.
AAACAAUCCCGAGGAUAUCGGCUAUUAGCAUGCCGAGAAGGCGGCGCGCAUCGACAUGAGGAUCACCCAUGUGUCCGCUCGGUU [Eternabot solution 31] (Eterna round: R96, puzzle: Exclusion NG 1) = 0.0208
GGUCUUCAAGUCAGGAUAUCGUAUAAUAGAUAUAACGAGAAGGGACAUGAGGAUCACCCAUGUCGUCUCAUCAG [Ex4 #21] (Eterna round: R97, puzzle: Brourd's mod of Exclusion 4) = 0.0839
UCUGUUGAAGGAUAUGCGUAACGAGUUACGGCUCAAGGUCUACAUGAGGAUCACCCAUGUAGAAGGUCAUCAGA [EX2 #71] (Eterna round: R97, puzzle: Exclusion 2) = 0.0195
AGAUCACAUGAGGAUCACCCAUGUCAGGAUAUCUACAUUGAAGCUUCGGCUUCAAUGUAGAGAAGGGAUAAUUA [E1/4-B1] (Eterna round: R97, puzzle: Exclusion 1) = 0.119
GGUUGGCGAGGAUAUACAUGAGGAUCACCCAUGUGGUCCUAAAAUAAAAUAGACCUUUGUAGAAGGCGCGGGUC [salish99_ex3_r4_040] (Eterna round: R97, puzzle: Exclusion 3) = 0.139

Challenge: Request the reported apparent KD of MS2 coat protein associated with AACCAGAUGAAACACAGGCACAUGAGGAUCACCCAUGUCUUAGAGCAUUCGGGUAAUCGGCUCGUUUUAAUUAGAAC [Eternabot (L1) Solution 22] (Eterna round: R97, puzzle: Sensor, turn-off variant 1)
Response given: 0.279

Challenge: Now consider ACUAUACGAGGAUAUACUGACGGGCCUCAGGCAUCCAUCAGACAUGAGGAUCACCCAUGUAGAAGGCGUAUACU [JR_Exc002_Sub408] (Eterna round: R96, puzzle: Exclusion 2) and answer again.
Response given: 0.459

Challenge: Next entry: AUCAACGUGUUAGGAUAUAAGCCUAAAAGAGACUUAGAAGGGACAUGAGGAUCACCCAUGUCGGGCGCCCAAGCUAUGCGACCU [Eternabot solution 4] (Eterna round: R96, puzzle: Exclusion NG 1)
Response given: 0.0328

Challenge: And then GGACGGAUAGGAUAUACAUGAGGAUCACCCAUGUGAACCCAGCAGAGGCUUCUUUGCAGUAGAAGGGUCCUUUA [Eternabot (Original) Solution 43] (Eterna round: R97, puzzle: Exclusion 3) , what is it?
Response given: 0.0535

----------
// apparent KD of MS2 coat protein lookup, one value per entry
# Test system: MS2 coat protein
# MEASUREMENT_NOTES: apparent KD of MS2 coat protein; higher = weaker reporter binding
# EXPERIMENTAL_CONTEXT: Eterna round: R101; input ligand: FMN 200 uM
Report as a plain number; the unit nM is understood.

CUUACUUUGUAGAAGGGUGACAUGAGGAUCACCCAUGUGCGUCUCCUGAAAGACCAGGGUACGCCACAGGAUAUACAAAGUAAG [Tigeatdi] (puzzle (switch architecture): Inverted Same State NG 2) = 59.8

As a next step, examine the sequence that follows.
Challenge: Give the measured apparent KD of MS2 coat protein of AAUAAACAAUAAAAGACUGGAGCAAACUUCUGAGGAUCACCCAGAAGGCGUCACCUAAUAGGUGACGAGGAUAUGGAGCUCCAG [#SharedSequence IExNG# - 2] (puzzle (switch architecture): Inverted Exclusion NG 3) .
Response given: 6.36

----------
# Test system: MS2 coat protein
# MEASUREMENT_NOTES: apparent KD of MS2 coat protein; designed switch direction (-1 OFF switch, 1 ON switch): -1; higher = weaker reporter binding
# EXPERIMENTAL_CONTEXT: Eterna round: R95; input ligand: FMN 200 uM
TEST_READOUT: apparent KD of MS2 coat protein (nM)
Could you give me the number in nM? Just the number is fine.

UGUACUAUGCGAGCUGACUUGCGUAGUGCAGCAGGUGUUACAUGAGGAUCACCCAUGUCCUCAUUUGCUCGUCUUAU [SL-sv3-2.04 JL mod] (puzzle: Sensor v3, turn-off variant 2) = 289
AAAUACAAGUAAAGAUCCUACAUGAGGAUCACCCAUGUGCUCGUUUUAUAAAGUACUAUCACGAAAGUGAUAGUACA [Sensor 3, v1 - 23] (puzzle: Sensor v3, turn-off variant 1) = 900

Pending sequence:
Challenge: Please give the measured apparent KD of MS2 coat protein for this sequence: UGAAAACAUGAGGAUCACCCAUGUAAGGAUAUGCAAAAGGAUAUAGAAGGAAAAAAAAGCAGAAGGUACAAAGG [salish99-ex1_r3_095] (puzzle: Exclusion 1)
Response given: 99.4

----------
# Test system: MS2 coat protein
# MEASUREMENT_NOTES: apparent KD of MS2 coat protein, switch ON state; designed switch direction (-1 OFF switch, 1 ON switch): 1; higher = weaker reporter binding
# EXPERIMENTAL_CONTEXT: FMN input: 0 or 200 uM; Eterna round: R93 (includes R88 designs)
Each entry below carries its recorded apparent KD of MS2 coat protein.
Your answer should be a plain number; it is taken to be in nM.

Some solved cases for reference:
AGAAAUAAAAGACAGGAUAUCCAAACUCAAACAUGAGGAUCACCCAUGUAAAAGAAAAUAAAGUGGGAGAAGGGUCAAAAUAAGA [Jieux modified + C segment V4] = 12.6
GAAAAACAUGAGGAUCACCCAUGUAAAAAUAUGGGAGGAUAUUGAAAGACGAAAGUCAAACAAGAAGGCCUAAAAG [Garnet 2] = 22.2

Let's switch to this sequence now.
Challenge: Reported apparent KD of MS2 coat protein, sequence AGAAGACAUGAGGAUCACCCAUGUGGGAAUAUGGGAGGAUAUACAAAGACGAGAGUCAGAGUAGAAGGCCUAGGAU [salish99-SS1-092] : ____
Response given: 37.3

----------
# System: MS2 coat protein
# MEASUREMENT_NOTES: apparent KD of MS2 coat protein; designed switch direction (-1 OFF switch, 1 ON switch): 1; higher = weaker reporter binding
# EXPERIMENTAL_CONTEXT: Eterna round: R95; input ligand: microRNA oligo, concentration not stated
Listing: apparent KD of MS2 coat protein of selected sequences
Dear colleague, please return just the value in µM, with no unit written.

Would you please look over these solved cases?
AUUAAACAUGAGGAUCACCCAUGUCAACAAAGUCGAGGAUAUGGGCAAAUAAAAUAAGAACCAGAAGGCGAAUUAU [salish99_ss1_r3_079] (puzzle: Same State 1) = 0.337
GGUUUAGUCGAUUGCCGUUGCACUCGAAAACAUGAGGAUCACCCAUGUUUGGGACAAGCUUUGCUCCUCGUCUUUCC [Sous] (puzzle: Sensor for hsa-mir-208a) = 0.0671
GCGCUACAUGAGGAUCACCCAUGUGCGAACGCACGAGGAUAUGCAUGGGCUAAUGCUGGUGCAGAAGGCGUGGCGC [Pin2Pin #8] (puzzle: Same State 1) = 0.0238
UAGACAAGCUUUAUGUUCUUCCUAUUCCAACAUGAGGAUCACCCAUGUAGUCUGUCGAUUGUGAGUGUAGUUGAGAU [JR_SHM208A_Sub026] (puzzle: Sensor for hsa-mir-208a) = 0.052
UUCUCACAUGAGGAUCACCCAUGUGAGCCUCUGUGAGGAUAUCCGACAUAAUUAAGUGAAGGAGAAGGUACACGAG [Malean] (puzzle: Same State 1) = 0.0302
CCGGUGAUAGGGCAGGAUAUGACUGUCGUCACAUGAGGAUCACCCAUGUCCCGGCAAUGCCACCGUUAGAAGGGCCCUAUCCCGA [Teuszaesti] (puzzle: Same State 2) = 0.0121
GUUAAACAUGAGGAUCACCCAUGUAAUAAUAUGGGAGGAUAUGGGAAUUAAUUAAUUAAACCAGAAGGCCUAAUUG [Mat - Same State 1 - D84] (puzzle: Same State 1) = 0.142
GGGUAGGAGCUACAGGAUAUAUAGAAGUUGACAUGAGGAUCACCCAUGUAAGGGUACGGAGGCGGAUAGAAGGGUAUGGGAGGUG [JR_SS2_Sub033] (puzzle: Same State 2) = 0.0542

Challenge: Requested field: apparent KD of MS2 coat protein. Item: AGGAAGGAGACUGAGGAUAUCGUUGAAAGGACAUGAGGAUCACCCAUGUGUAUAGGAUUGGAGAACGAGAAGGCAGAGGAGUGGA [JR_SS2_Sub045] (puzzle: Same State 2)
Response given: 0.0466

Challenge: Next: GUUAUACAUGAGGAUCACCCAUGUCAAUGUAGUCGAGGAUAUGGGCAGCUAUGAGGCGUACUAGAAGGCGAAGAGU [JL-ss1-3.12 ViennaUCT mod] (puzzle: Same State 1)
Response given: 0.374

Challenge: Next sequence up: GAGAGUGAAGUACAGGAUAUGAGGAGAGGAACAUGAGGAUCACCCAUGUGAAAUAGAGAGAAGAGUCAGAAGGGUAGGGAAGAGA [JR_SS2_Sub004] (puzzle: Same State 2)
Response given: 0.0314

Challenge: Same question, UUAAGCCGCGGGCAGGAUAUGUAUUAAAAUACAUGAGGAUCACCCAUGUGCAGGUGUAACACCUGACAGAAGGGCCAAUCGCGGC [Soteed - 5] (puzzle: Same State 2) this time
Response given: 0.116

Challenge: One more sequence: AGUCCAGCCUGAGCUGGACAAAAGCAUGUACAUGAGGAUCACCCAUGUCAUGUACAAGCUUUUUGCUCGUCUUAAUA [Mat - hsa-mir-208a - Mod of JL - D44] (puzzle: Sensor for hsa-mir-208a)
Response given: 0.0153

Challenge: Same read-out for AGUCCAGCCUGAGCUGGACAAAAGCAUGUACAUGAGGAUCACCCAUGUUCAUGUACAAGCUUUUUGCUCGUCUUGCG [salish99_208a_r3_106x] (puzzle: Sensor for hsa-mir-208a) ?
Response given: 0.0173

Challenge: // next record UGGAUCUAGGCUUGCCUGGGUCCUUCAAGACAUGAGGAUCACCCAUGUGUUUUUUUUUUGCUUUUUGUUUGUCUUGA [JL A Humble Attempt mod 2] (puzzle: Sensor for hsa-mir-208a)
Response given: 0.015

Challenge: Could you do the same for UCUUGGUUUUUGCUCGUUUUUUGUGUUGAACAUGAGGAUCACCCAUGUAUUGUACGGUCCGAUUUAGUGAUGGUCCA [JMF 40] (puzzle: Sensor for hsa-mir-208a) , please?
Response given: 0.0184

Challenge: Proceed to AUUAAACAUGAGGAUCACCCAUGUCAACAAAGUCGAGGAUAUGGGCAAAUAUUAUAAUAACCAGAAGGCGAAUAAU [salish99_ss1_r3_082] (puzzle: Same State 1)
Response given: 0.212

Challenge: Same lookup for AACAAUCUAUCUGAGGAUAUCAUGAAAUAAACAUGAGGAUCACCCAUGUGCAGGAAAACUGUAUAUGAGAAGGCAGAUAGAUUGA [salish99_ss2_r3_046] (puzzle: Same State 2) , please.
Response given: 0.0692

Challenge: Queued: CGGCGCUGUCGAGAGGAUAUGCGGUGACGGACAUGAGGAUCACCCAUGUUAGCGAUAGCGUUACGGUAGAAGGCUCUACAGUCGC [Soteed Omei mod 10] (puzzle: Same State 2)
Response given: 0.0492

Challenge: Another sequence to check: UGGUAACAUGAGGAUCACCCAUGUCAAAUGAAUCUAGGAUAUGGGAAAGGAGAAGAGAAACCAGAAGGAGAGGUUG [Altered State 1-14 - Jieux - Same State 1] (puzzle: Same State 1)
Response given: 0.0631
